system tested: hTLR7 (Homo sapiens, UniProt Q9NYK1)
Sequence (Q9NYK1 27-1049): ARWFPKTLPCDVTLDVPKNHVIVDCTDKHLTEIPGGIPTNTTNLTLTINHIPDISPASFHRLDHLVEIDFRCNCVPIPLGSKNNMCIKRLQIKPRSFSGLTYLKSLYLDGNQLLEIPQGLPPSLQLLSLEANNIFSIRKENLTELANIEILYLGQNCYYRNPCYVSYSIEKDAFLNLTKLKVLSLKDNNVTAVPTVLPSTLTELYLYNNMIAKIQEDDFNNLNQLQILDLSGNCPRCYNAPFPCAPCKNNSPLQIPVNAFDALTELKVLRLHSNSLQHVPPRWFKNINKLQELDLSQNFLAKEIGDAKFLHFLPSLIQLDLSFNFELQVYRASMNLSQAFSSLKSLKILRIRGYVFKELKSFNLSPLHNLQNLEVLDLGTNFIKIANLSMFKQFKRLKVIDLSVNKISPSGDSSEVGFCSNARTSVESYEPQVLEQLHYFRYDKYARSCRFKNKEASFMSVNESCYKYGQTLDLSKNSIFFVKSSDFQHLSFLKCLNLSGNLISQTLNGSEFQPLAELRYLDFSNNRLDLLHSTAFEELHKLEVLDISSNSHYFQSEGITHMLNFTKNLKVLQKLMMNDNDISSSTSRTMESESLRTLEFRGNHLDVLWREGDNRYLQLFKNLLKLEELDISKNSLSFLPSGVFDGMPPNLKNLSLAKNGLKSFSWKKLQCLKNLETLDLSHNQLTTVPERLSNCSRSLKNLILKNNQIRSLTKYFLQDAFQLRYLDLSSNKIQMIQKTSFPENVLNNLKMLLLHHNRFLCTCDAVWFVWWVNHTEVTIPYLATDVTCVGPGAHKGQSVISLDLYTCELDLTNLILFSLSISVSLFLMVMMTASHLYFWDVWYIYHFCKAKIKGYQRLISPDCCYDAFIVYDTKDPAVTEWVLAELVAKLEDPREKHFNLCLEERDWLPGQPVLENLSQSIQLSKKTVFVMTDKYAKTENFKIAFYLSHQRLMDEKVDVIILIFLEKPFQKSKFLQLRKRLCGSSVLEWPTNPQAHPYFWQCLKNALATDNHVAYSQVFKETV
protocol: hTLR7 agonistic activity, HEK-Blue hTLR7 SEAP reporter gene assay
recorded conditions: HEK-Blue hTLR7 cells, SEAP reporter, about 16 hours incubation; read-out: TLR7 EC50
pEC50: −log10 of the molar value.
Below: a set of entries, each annotated with reported pEC50.
experimental endpoint: pEC50

smiles_text=CC(C)(O)Cn1c(CCCC(F)(F)F)nc2c(N)nc3ccccc3c21 system_tested="hTLR7 (Homo sapiens, UniProt Q9NYK1)" experimental_endpoint=pEC50 quantitative_result=6.89
smiles_text=CC(C)(O)Cn1c(CCCCC(F)(F)F)nc2c(N)nc3ccccc3c21 system_tested="hTLR7 (Homo sapiens, UniProt Q9NYK1)" experimental_endpoint=pEC50 quantitative_result=6.27
smiles_text=CCCc1nc2c(N)nc3ccccc3c2n1CC(C)(C)O system_tested="hTLR7 (Homo sapiens, UniProt Q9NYK1)" experimental_endpoint=pEC50 quantitative_result=6.63
smiles_text=CCCCCc1nc2c(N)nc3ccccc3c2n1CC(C)(C)O system_tested="hTLR7 (Homo sapiens, UniProt Q9NYK1)" experimental_endpoint=pEC50 quantitative_result=7.17
